# Tested on: MAP3K1;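 also: KINOMEscan kinase panel screen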
# assay_context: concentration: 1 μM, replicates: in singlicate; n = 1
attribute_measured: %Inh (%)
Give bare numbers, in %.

A selection of reference data follows.
COc1ccc(C)c(Nc2ccnc(Nc3ccc(-c4cnc[nH]4)cc3)n2)c1.Cl: 0
Cc1ccc(NC(=O)c2ccnc(N3CCCCC3)c2)cc1-c1ccc(C(=O)NCC2CC2)cc1: 0
Cc1nn2c(=O)cc(N3CCO[C@H](C)C3)nc2n1Cc1cccc(Cl)c1Cl: 66
O=C(O)C(F)(F)F.O=c1[nH]ccc2nc(N[C@@H]3CCNC3)nc(Nc3ccc4c(c3)S(=O)(=O)CC4)c12: 28

For each listed entry, give its %Inh.
1. CN(c1ccc2c(c1)nc(NCc1ccccc1)n2C)c1ccnc(Nc2ccc(CS(C)(=O)=O)cc2)n1.Cl
2. Fc1cc(Cl)ccc1Nc1ccnc2cc(-c3ccc(CN4CCSCC4)o3)ccc12
3. Fc1cc(Cl)ccc1Nc1ccnc2cc(-c3ccc(CN4CCOCC4)o3)ccc12

1. 0
2. 6
3. 38
